// data source = paper PMC5540273

Measured %Inh, listed per entry for reference.
# System: OSR1;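 further: KINOMEscan kinase panel screen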
# Construct: gene OXSR1
# test.context: concentration: 1 μM, replicates: in singlicate; n = 1
recorded.metric: %Inh (%)

> print(dat)
                                    compound  recorded.metric  measured.number
 1      COc1cc2ncnc(Nc3cccc(Br)c3)c2cc1OC.Cl             %Inh               16
 2           Fc1ccc(-c2nc[nH]c2-c2ccncc2)cc1             %Inh                0
 3             CCn1c(-c2c(N)noc2C)nc2cnccc21             %Inh                4
 4  CC(=O)c1c(C)c2cnc(Nc3ccn(C)n3)nc2n(C2CCCC2)c1=O             %Inh                0
 5  CNCc1ccc2nc(NC(=O)c3ccc(C(C)(C)C)cc3)cn2c1             %Inh               22
 6  Cc1ccc(NC(=O)Nc2ccc(Cl)c(C(F)(F)F)c2)cc1-c1ccc(C(=O)Nc2ccncc2)cc1             %Inh               35
 7  O=C1NC(=O)C(c2ccc(Cl)cc2)=C1Nc1ccc(O)cc1             %Inh                0
 8  COc1ccc(Nc2nccc(NCCNC(=O)Nc3cc(C)ccc3C)n2)cc1             %Inh                2
 9  CC(=O)c1c(C)c2cnc(Nc3ccc(N4CCNCC4)cn3)nc2n(C2CCCC2)c1=O             %Inh                0
10  Cc1nccc(-c2c(-c3ccc(F)cc3)ncn2CCCN2CCOCC2)n1.Cl             %Inh               15
11  COC(=O)c1cccc(NC(=O)NC2CCN(c3ccnc(Nc4ccc(OC)cc4)n3)C2)c1 (centres unmarked)             %Inh                0
12  Cc1cnc(N)c(/C=C/c2cncc(C(=O)NCCc3ccc(Cl)cc3Cl)c2)c1.Cl             %Inh                0
13  Nc1ncnc2occ(-c3ccc4c(c3)CCN4C(=O)Cc3cc(F)ccc3F)c12             %Inh                0
14  CS(=O)(=O)Cc1ccc(Nc2nccc(-c3c(-c4cccc(NC(=O)C5CCCCC5)c4)nn4ncccc34)n2)cc1             %Inh               22
15     O=C(Nc1n[nH]c2cc(-c3ccsc3)ccc12)C1CC1             %Inh               27
16  COc1ccc(Nc2nccc(-c3ccc(NC(=O)c4cc5cc(F)ccc5[nH]4)cc3)n2)cc1             %Inh                8
17  COc1ccc(CSc2nnc(-c3ccc4nccn4c3)o2)cc1C(F)(F)F             %Inh                8
18  CS(=O)(=O)CCNCc1nc(-c2ccc3ncnc(Nc4ccc(OCc5ccccc5)c(Cl)c4)c3c2)cs1.Cl             %Inh                2
19  CCc1ccc(-c2ccc3c(c2)-c2n[nH]cc2S(=O)(=O)N3C)cc1             %Inh                0
20      CSc1ccc(-c2nc3n(c2-c2ccncc2)CCC3)cc1             %Inh               19
21   COc1ccc(CSc2nnc(-c3ccc4c(c3)CCO4)o2)cc1             %Inh                0
22                CCn1c(-c2ccccc2)nc2cnccc21             %Inh                1
23  CNc1nc(-c2ccc3c(N)n[nH]c3c2)cc(N2C[C@@H](C(=O)Nc3ccccc3)CC[C@H]2C)n1             %Inh               10
24  O=C(Nc1n[nH]c2nc(-c3ccco3)c(Br)cc12)C1CCN(Cc2ccccc2)C1.O=C(O)[C@H](O)[C@@H](O)C(=O)O (centres unmarked)             %Inh                5
25  COC(=O)C(Cc1ccccc1)NC(=O)NC1CCN(c2ccnc(Nc3ccc(F)cc3)n2)C1 (centres unmarked)             %Inh                5
26  Cc1ccc(NC(=O)Nc2ccc(Cl)cc2)cc1-c1ccc(C(=O)Nc2ccncc2)cc1             %Inh                5
27       CNc1cc(-c2ccc3c(N)n[nH]c3c2)nc(N)n1             %Inh                0
28  Cn1cncc1-c1cc2c(Nc3ccc(OCc4ccccc4)cc3)ncnc2cn1             %Inh               14
29  CC[C@@H]1CO[C@H](C(=O)Nc2ccccc2)CN1c1cc(-c2ccc3c(N)n[nH]c3c2)nc(NC)n1             %Inh               14
